// IC50 lookup, one value per entry
Target: human PD-L1 / Human PD-1 (Homo sapiens (Human), UniProt Q9NZQ7)
Sequence (Q9NZQ7 19-239): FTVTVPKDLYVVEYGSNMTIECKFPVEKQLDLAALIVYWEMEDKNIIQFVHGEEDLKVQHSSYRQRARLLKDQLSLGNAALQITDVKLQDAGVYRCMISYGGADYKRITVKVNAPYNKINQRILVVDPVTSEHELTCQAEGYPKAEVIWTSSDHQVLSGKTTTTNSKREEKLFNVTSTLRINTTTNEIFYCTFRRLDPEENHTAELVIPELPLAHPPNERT
Assay: Enzyme-Linked Immunosorbent Assay (ELISA), PD-1/PD-L1 binding
Settings: Table 3; plate-coated human PD-L1, biotinylated human PD-1; read-out: ELISA IC50

Examples with answers:
| MOLECULE | IC50 |
| --- | --- |
| COC(=O)[C@H](CO)NC(C)c1cc(Cl)c(O[C@H]2CCc3c(-c4ccccc4F)cccc32)cc1OCc1cncc(C#N)c1 (stereo partly shown) [Example 3.109] | 500 to 20000 nM |
| N#Cc1cncc(COc2cc(O[C@H]3CCc4c(-c5cccc(O)c5)cccc43)c(Cl)cc2CN[C@@H](CO)C(=O)O)c1 [Example 3.118] | < 100 nM |
| N#Cc1cncc(COc2cc(O[C@H]3CCc4c(-c5ccccc5F)cccc43)c(Cl)cc2CN[C@H]2CCCC[C@@H]2O)c1 [Example 3.021] | < 100 nM |

Consider the molecule shown here: CC(NCc1cc(Cl)c(O[C@H]2CCc3c(-c4ccccc4F)cccc32)cc1OCc1cncc(C#N)c1)C(=O)NC(CO)C(=O)O (stereo partly shown) [Example 3.095] What is its recorded IC50?
< 100 nM

Consider the molecule shown here: N#Cc1cncc(COc2cc(O[C@H]3CCc4c(Br)cccc43)c(Cl)cc2CN[C@@H](CO)C(=O)O)c1 [Example 3.028] What is its recorded IC50?
500 to 20000 nM

---

Biological target: human PD-L1 / Human PD-1 (Homo sapiens (Human), UniProt Q9NZQ7)
Experiment: Enzyme-Linked Immunosorbent Assay (ELISA), PD-1/PD-L1 binding
Conditions: Table 2; plate-coated human PD-L1, biotinylated human PD-1; read-out: ELISA IC50
READOUT KIND: IC50

| COMPOUND | READOUT KIND | RESULT VALUE |
| --- | --- | --- |
| COc1cccc(-c2cccc3c2CC[C@@H]3Oc2cc(OCc3cncc(C#N)c3)c(CN3CCC[C@H](O)C3)cc2Cl)c1F | IC50 | 100 to 500 nM |
| CCOc1cc(O[C@H]2CCc3c(-c4ccccc4F)cccc32)c(Cl)cc1CNC(CO)(CO)CO | IC50 | < 100 nM |
| COC[C@H](NCc1cc(Cl)c(O[C@H]2CCc3c(-c4ccccc4F)cccc32)cc1OCc1cncc(C#N)c1)C(=O)O | IC50 | < 100 nM |

Consider the compound shown here: CC(C)c1cccc(-c2cccc3c2CC[C@@H]3Oc2cc(OCc3cncc(C#N)c3)c(CN[C@@H](CO)C(=O)O)cc2Cl)c1 What is its recorded IC50?
500 to 20000 nM

Consider the compound shown here: COc1cccc(-c2cccc3c2CC[C@@H]3Oc2cc(OCc3cncc(C#N)c3)c(CN3CC(O)C3)cc2Cl)c1Cl What is its recorded IC50?
100 to 500 nM

Consider the compound shown here: N#Cc1cncc(COc2cc(O[C@H]3CCc4c(-c5ccccc5F)cccc43)c(Cl)cc2CNC2(C(=O)O)CC2)c1 What is its recorded IC50?
< 100 nM

Consider the compound shown here: N#Cc1cncc(COc2cc(OC3CCc4c(-c5ccccc5)cccc43)c(Cl)cc2CNCc2nnn[nH]2)c1 (stereo not drawn) What is its recorded IC50?
< 100 nM

Consider the compound shown here: COc1cccc(-c2cccc3c2CC[C@@H]3Oc2cc(OCc3cncc(C#N)c3)c(CNCc3ccc(B(O)O)cc3)cc2Cl)c1F What is its recorded IC50?
500 to 20000 nM
